I'd appreciate it if you could supply kon values for the items below.
Biological target: T1, recombinant human LAG3 expressed with a C-terminal myc-myc-hexahistidine tag (human, UniProt P18627 29-450)
T1 construct: also called hLAG3-mmh; hLAG3.mmh
T1 sequence (P18627 other isoform, or with tags, fused parts or gaps limits assumed): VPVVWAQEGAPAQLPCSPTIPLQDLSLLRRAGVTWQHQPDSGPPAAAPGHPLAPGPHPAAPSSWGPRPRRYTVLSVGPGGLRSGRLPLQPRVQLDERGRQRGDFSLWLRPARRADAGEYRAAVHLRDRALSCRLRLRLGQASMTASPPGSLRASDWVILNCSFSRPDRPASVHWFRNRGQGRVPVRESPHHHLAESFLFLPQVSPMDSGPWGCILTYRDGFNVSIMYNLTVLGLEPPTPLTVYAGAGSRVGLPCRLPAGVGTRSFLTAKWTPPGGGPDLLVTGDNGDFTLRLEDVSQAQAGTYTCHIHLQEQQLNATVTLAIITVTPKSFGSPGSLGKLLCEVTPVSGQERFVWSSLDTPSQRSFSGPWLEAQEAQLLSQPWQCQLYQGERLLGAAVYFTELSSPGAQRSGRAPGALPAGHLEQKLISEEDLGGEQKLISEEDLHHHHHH
Assay: SPR, mAb captured, 37 C
Protocol: The BiaCore sensor surface was derivatized with either a polyclonal rabbit anti-mouse antibody (GE, # BR-1008-38) or with a monoclonal mouse anti-human Fc antibody (GE, # BR-1008-39) to capture approximately 50-85 RUs of anti-LAG3 monoclonal antibodies, expressed with either a mouse Fc or a human Fc, respectively. […] Kinetic association (kₐ) and dissociation (kd) rate constants were determined by processing and fitting the data to a 1:1 binding model using Scrubber 2.0c curve fitting software. […]
One number for each entry, in M⁻¹ s⁻¹.

H4sH15479P (antibody, V domains shown) VH: QVQLQQWGAGLLNPSETLSLTCAVYGGAFSDYYWNWIRQPPGKGLEWIGEINHRGSTNYNPSLKSRVTISVDTSKNQFSLRMSSVTAADAAVYYCARGEDYDIWNGYYQEKWGQGTLVTVSS VL: EIVLTQSPATLSLSPGERATLSCRASQSISTYLAWYQQKPGQAPRLLIYDASKRATGIPARFSGSGSGTDFTLTISSLEPEDFVVYYCHQRSNWPLTFGGGTKVEIK    1.24e+06

Dear colleague, could you send me kon for each of the items below? Thanks.
1. H4H15479P (antibody, human IgG4, V domains shown) VH: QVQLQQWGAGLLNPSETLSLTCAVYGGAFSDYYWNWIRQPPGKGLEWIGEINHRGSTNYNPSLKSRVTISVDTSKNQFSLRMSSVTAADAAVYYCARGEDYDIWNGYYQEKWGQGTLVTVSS VL: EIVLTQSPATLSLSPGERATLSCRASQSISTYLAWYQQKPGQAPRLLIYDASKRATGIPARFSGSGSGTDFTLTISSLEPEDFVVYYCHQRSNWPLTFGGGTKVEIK
2. H4H15483P (antibody, human IgG4, V domains shown, H4H = human IgG4 Fc with S108P hinge mutation) VH: QVQLQQWGAGLLPPSETLSLICAVYGGSFSGYYWSWIRQPPGKGLEWIGEINHRGSTNYNPSLKSRATISVDTSKNQFSLKLSSVTAADTAVYYCSRGEDYYDSSGYSYYFDYWGQGTLVTVSS VL: EIVLTQSPATLSLSPGERATLSCRASQSVSSYLAWYQQKPGQAPRLLIYDASNRATGIPARFSGSGSGTDFTLTISSLEPEDFAVYYCQQRSNWPLTFGGGTKVEIK

1.27e+06
774000
